- testTarget: ENPP-1 (Ectonucleotide Pyrophosphatase/Phosphodiesterase 1) (Homo sapiens (Human), UniProt P22413)
- Sequence (P22413 whole entry): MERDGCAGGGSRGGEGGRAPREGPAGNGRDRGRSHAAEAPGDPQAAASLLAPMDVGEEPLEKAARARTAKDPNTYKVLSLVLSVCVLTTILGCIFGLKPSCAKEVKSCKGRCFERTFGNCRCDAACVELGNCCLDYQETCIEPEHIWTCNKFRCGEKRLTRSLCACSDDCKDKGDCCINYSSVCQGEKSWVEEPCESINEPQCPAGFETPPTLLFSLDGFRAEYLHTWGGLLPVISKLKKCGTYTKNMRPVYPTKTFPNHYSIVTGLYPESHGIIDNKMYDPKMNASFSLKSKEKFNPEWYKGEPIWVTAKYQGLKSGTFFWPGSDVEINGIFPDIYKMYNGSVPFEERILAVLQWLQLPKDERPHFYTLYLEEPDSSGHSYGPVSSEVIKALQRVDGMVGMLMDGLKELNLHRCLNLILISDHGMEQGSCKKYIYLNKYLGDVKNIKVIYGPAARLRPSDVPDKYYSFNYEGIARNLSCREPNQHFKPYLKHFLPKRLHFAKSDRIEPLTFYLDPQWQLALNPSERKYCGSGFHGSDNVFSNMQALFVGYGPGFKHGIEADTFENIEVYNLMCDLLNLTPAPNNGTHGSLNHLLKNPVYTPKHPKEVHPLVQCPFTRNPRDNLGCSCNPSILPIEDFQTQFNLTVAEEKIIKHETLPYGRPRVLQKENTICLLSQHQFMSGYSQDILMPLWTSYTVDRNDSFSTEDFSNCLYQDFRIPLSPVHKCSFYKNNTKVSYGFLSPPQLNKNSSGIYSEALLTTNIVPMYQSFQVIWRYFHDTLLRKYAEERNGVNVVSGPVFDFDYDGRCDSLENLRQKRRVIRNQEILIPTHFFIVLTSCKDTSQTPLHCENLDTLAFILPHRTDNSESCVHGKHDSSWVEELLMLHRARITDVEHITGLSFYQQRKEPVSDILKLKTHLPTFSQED
- experimentNotes: ENPP1 inhibition assay (AMP Glo, cGAMP substrate)
- Format: biochemical
- studyConditions: cGAMP 20 μM substrate, ENPP1 1 nM
metric: IC50 (µM)
One number for each entry, in µM.

>>> reportedresult("Cc1cc(Cl)n2ncnc(N3CC4(CC(N(C5CCCC5)S(N)(=O)=O)C4)C3)c12")
0.395
>>> reportedresult("Cc1cc(Cl)n2ncnc(N3CC(CCN(C4CC4)S(N)(=O)=O)C3)c12")
1.51
>>> reportedresult("CCCCN(C1CC2(C1)CN(c1ncnn3c(Cl)cc(C)c13)C2)S(N)(=O)=O")
0.039

Problem: Quick one: IC50 for Cn1ncc2c(N3CC4(CC(N(CC(F)F)S(N)(=O)=O)C4)C3)ncnc21 ?
Result: 0.565

###

Would you mind telling me the reported IC50 of each entry?
- testTarget: ENPP-1 (Ectonucleotide Pyrophosphatase/Phosphodiesterase 1) (Homo sapiens (Human))
- experimentNotes: ENPP1 inhibition assay (AMP Glo, cGAMP substrate)
- Format: biochemical
- studyConditions: cGAMP 20 μM substrate, ENPP1 1 nM
- Protocol: IC50 values of compounds against ENPP-1 (Ectonucleotide Pyrophosphatase/Phosphodiesterase 1) were determined at Integral BioSciences (India) using AMP Glo (Promega, Cat #V5011). […] The reaction was further incubated for 60 min at RT after which the plates were read using BioTek Plate reader. Analysis was done using the standard curve by non-linear regression, variable slope inhibitor curve fits (Graph-Pad Prism) and IC50's of compounds were determined wherever possible.
Answers are plain numbers, in µM.

>>> reportedresult("COc1cc(OC)c2ncnc(N3CC(CCNS(N)(=O)=O)C3)c2c1 [Compound 1.50]")
1.48
>>> reportedresult("COc1cc2ncnc(N3CC(/C=C/S(N)(=O)=O)C3)c2cc1OC [Compound 1.55]")
0.036
>>> reportedresult("COc1ccc2ncnc(N3CC(CCNS(N)(=O)=O)C3)c2c1 [Compound 1.16]")
0.076
>>> reportedresult("Cc1cc(Cl)n2ncnc(N3CC4(CC(N(C)S(N)(=O)=O)C4)C3)c12 [Compound 1.76]")
0.084
>>> reportedresult("COc1ccc2c(N3CC4(CC(N(CC(F)F)S(N)(=O)=O)C4)C3)ncnc2c1 [Compound 1.131]")
0.055

Dear colleague, could you send me IC50 for each of the items below? Thanks.
1. Cc1cc(Cl)n2ncnc(N3CC4(CC(N(CC5CCC5)S(N)(=O)=O)C4)C3)c12 [Compound 1.116]
2. COc1cc2ncnc(N3CC(CCNS(N)(=O)=O)C3)c2cc1Br [Compound 1.41]
3. Cc1cc(Cl)n2ncnc(N3CC4(CC(N(CC5CCC(C(F)(F)F)CC5)S(N)(=O)=O)C4)C3)c12 (centres unmarked) [Compound 1.119]
4. COc1cc2ncnc(N3CC(CCN(C4CC4)S(N)(=O)=O)C3)c2cc1OC [Compound 1.23]
5. COc1cc2ncc(C#N)c(N3CC4(CC(NS(N)(=O)=O)C4)C3)c2cc1OC [Compound 1.24]
6. COc1cc2ncnc(N3CC(CCNS(N)(=O)=O)C3)c2cc1C [Compound 1.54]
7. CCN(C1CC2(C1)CN(c1ncnn3c(Cl)cc(C)c13)C2)S(N)(=O)=O [Compound 1.98]
8. COc1cc2nc(-c3ccncc3)nc(N3CC(CCNS(N)(=O)=O)C3)c2cc1OC [Compound 1.35]

Result:
1: 0.069; 2: 0.737; 3: 0.218; 4: 0.029; 5: 0.002; 6: 1.68; 7: 0.055; 8: 0.099

Problem: Suppose we examine the compound Cc1c(C#N)cn2ncnc(N3CC4(CC(N(C)S(N)(=O)=O)C4)C3)c12 [Compound 1.78] ; what IC50 value has been reported?
Result: 0.964

###

- testTarget: ENPP-1 (Ectonucleotide Pyrophosphatase/Phosphodiesterase 1) (Homo sapiens (Human))
- experimentNotes: ENPP1 inhibition assay (AMP Glo, cGAMP substrate)
- Format: biochemical
- studyConditions: cGAMP 20 μM substrate, ENPP1 1 nM
metric: IC50 (µM)
One number for each entry, in µM.

Please review the entries below; each comes with its answer.
>>> reportedresult("COc1cccc2c(N3CC(CCNS(N)(=O)=O)C3)ncnc12")
0.072
>>> reportedresult("COc1cc2ncnc(N3CC(CC(=O)NO)C3)c2cc1OC")
0.026

Next, consider the following molecule.
Problem: Which IC50 value belongs to Cc1cc(Cl)n2ncnc(N3CC4(CC(N(CC5CCCCC5)S(N)(=O)=O)C4)C3)c12 ?
Result: 0.239

###

- testTarget: ENPP-1 (Ectonucleotide Pyrophosphatase/Phosphodiesterase 1) (Homo sapiens (Human), UniProt P22413)
- experimentNotes: ENPP1 inhibition assay (AMP Glo, cGAMP substrate)
- Format: biochemical
- studyConditions: cGAMP 20 μM substrate, ENPP1 1 nM
Rule: IC50 below 0.07 µM gives t, anything at or above gives f.

>>> label("COc1cc2nncc(N3CC(CCNS(N)(=O)=O)C3)c2cc1OC [Compound 1.27]")
"t"
>>> label("COc1ccc2c(N3CC(CCNS(N)(=O)=O)C3)nc(C34CC5CC(CC(C5)C3)C4)nc2c1 [Compound 1.45]")
"f"
>>> label("CCc1nc(N2CC(CCNS(N)(=O)=O)C2)c2ccc(OC)cc2n1 [Compound 1.37]")
"f"

Problem: Hi there! Is IC50 for Cc1cc(Cl)n2ncnc(N3CC4(CC(N(C5CC5)S(N)(=O)=O)C4)C3)c12 [Compound 1.81] below 0.07 µM, do you know?
Result: f

Problem: Check if IC50 falls below 0.07 µM for CCc1nc(N2CC(CCNS(N)(=O)=O)C2)c2cc(OC)c(OC)cc2n1 [Compound 1.61] .
Result: f

Problem: Could you please tell me whether IC50 recorded for COc1ccc2c(N3CC4(CC(N(C)S(N)(=O)=O)C4)C3)cnnc2c1 [Compound 1.87] is less than 0.07 µM?
Result: t

Problem: Item Cc1cc(C#N)n2ncnc(N3CC4(CC(N(C)S(N)(=O)=O)C4)C3)c12 [Compound 1.91] : IC50 beneath 0.07 µM, strictly?
Result: f

Problem: For this molecule, is IC50 lower than 0.07 µM? Cn1ccc2ncnc(N3CC(CCNS(N)(=O)=O)C3)c21 [Compound 1.14]
Result: f

###

So I've got a bunch of compounds here, and I need their IC50 values.
- testTarget: ENPP-1 (Ectonucleotide Pyrophosphatase/Phosphodiesterase 1) (Homo sapiens (Human), UniProt P22413)
- experimentNotes: ENPP1 inhibition assay (AMP Glo, cGAMP substrate)
- Type: biochemical
- studyConditions: cGAMP 20 μM substrate, ENPP1 1 nM
One number for each entry, in µM.

# annotated cases, reported IC50 shown
>>> reportedresult("Cc1c(Cl)cn2ncnc(N3CC4(CC(N(C)S(N)(=O)=O)C4)C3)c12")
0.391
>>> reportedresult("COc1ccc2c(N3CC(CCNS(N)(=O)=O)C3)ncnc2c1")
0.008
>>> reportedresult("COc1cc2c(N3CC(CCNS(N)(=O)=O)C3)ncnc2cn1")
0.22
>>> reportedresult("COc1cc2ncnc(N3CC(CNS(N)(=O)=O)C3)c2cc1OC")
0.028

Problem: # lookup: IC50 of Cc1ccn2ncnc(N3CC4(CC(NS(N)(=O)=O)C4)C3)c12
Result: 0.067

###

- testTarget: ENPP-1 (Ectonucleotide Pyrophosphatase/Phosphodiesterase 1) (Homo sapiens (Human))
- experimentNotes: ENPP1 inhibition assay (AMP Glo, cGAMP substrate)
- Type: biochemical
metric: IC50 (µM)
Numbers only, in µM.

Problem: Request - read-out IC50 | tested on ENPP-1 (Ectonucleotide Pyrophosphatase/Phosphodiesterase 1) (Homo sapiens (Human)) | molecule COc1cc2nc(C)nc(N3CC(CCNS(N)(=O)=O)C3)c2cc1OC [Compound 1.17]
Result: 0.057

###

- testTarget: ENPP-1 (Ectonucleotide Pyrophosphatase/Phosphodiesterase 1) (Homo sapiens (Human), UniProt P22413)
- experimentNotes: ENPP1 inhibition assay (AMP Glo, cGAMP substrate)
- Format: biochemical
- studyConditions: cGAMP 20 μM substrate, ENPP1 1 nM
- Method: IC50 values of compounds against ENPP-1 (Ectonucleotide Pyrophosphatase/Phosphodiesterase 1) were determined at Integral BioSciences (India) using AMP Glo (Promega, Cat #V5011). […] The reaction was further incubated for 60 min at RT after which the plates were read using BioTek Plate reader. Analysis was done using the standard curve by non-linear regression, variable slope inhibitor curve fits (Graph-Pad Prism) and IC50's of compounds were determined wherever possible.
Record form. Attribute: IC50. Fill in for each entry.
One number for each entry, in µM.

Worked examples follow.
>>> reportedresult("Cc1cc(Cl)n2ncnc(N3CC4(CC(N(CC(F)(F)F)S(N)(=O)=O)C4)C3)c12")
0.047
>>> reportedresult("Cc1cc(Cl)n2ncnc(N3CC4(CC(N(CC(C)(F)F)S(N)(=O)=O)C4)C3)c12")
0.03

For every listed record, write down its IC50.
1. COc1ccc2c(N3CC(CCNS(N)(=O)=O)C3)c(C#N)cnc2c1
2. CCOc1cccc2c(N3CC(CCNS(N)(=O)=O)C3)ncnc12
3. COc1cc2nc(C3CC3)nc(N3CC(CCNS(N)(=O)=O)C3)c2cc1OC
4. Cc1cc(Cl)n2ncnc(N3CC4(CC(N(CCC(F)(F)F)S(N)(=O)=O)C4)C3)c12

Result:
0.011
0.084
0.66
0.019
